- EXPERIMENT_NOTES: yeast display, Sf9 membrane polyspecificity reagent, FACS + sequencing; frameworks hold sequencing errors
ASSAY_READOUT: polyreactivity (PSR sort gate)

record_sequence=QVQIVESGGGIVQAGGSLRLSCAASGLTFHQYTMGWYRQAPGKERELVAAISSGGSTNYADSVKGRFTISRDNAKNTVFLQMNSLKPEDTAVYYCAADKYYFAYDYWGQGTQVNVSS experimental_result="low polyreactivity"
record_sequence=QDQLVESGGGLVQAGGSLRLSCAASGLTFAIYAMGCYRPAPGKERELVAGITWNTGRTYYADSVKGRFTISRDNAKNTVYLQMNSLNPEDTAVYYFAGRFVSRSVRGEATKYDYWGQGTQVTVSS experimental_result="high polyreactivity"
record_sequence=QVQLVESGGGVQAGGSLRLSCAASGRTFVPYAMGWYRQAPGKERELVAAISSIGDSTSYADSVKGRFTISRDNAKNTVYLQMNCLKPEDTAVYYFAAAEDRDRLVPKLDYWGQGTQVTVSS experimental_result="low polyreactivity"
record_sequence=QVQLLESGGGLVQAGGTLRLSCAASGSTFRYNAMGWYRQAPGKERELVAAITSGGRTNYADSVKGRFTISRDNAKYTFYLQMNSLKPEDTGVYYCAARRYCRNWHNVYWGQGTQVTVSS experimental_result="high polyreactivity"
record_sequence=QVQLVESGGGLVQAGGSLRLSCAASGSIFWGYAMGWYRQAPGKERELVAAISSSGGNTYYADSVKGRFTISRDNAKNTVYLQMNSLKPEDTAVYYCAATPEFYGGKITDVYSQYGYWGQGSQVTVSS experimental_result="low polyreactivity"

----------
- EXPERIMENT_NOTES: yeast display, Sf9 membrane polyspecificity reagent, FACS + sequencing; frameworks hold sequencing errors
ASSAY_READOUT: polyreactivity (PSR sort gate)

record_sequence=QVQLVESGGGLVQAGGSLRLSCAASGRTFPYYTMGWYRQAPGKERELVAAITSGGSTHYADSVKGRFTISRDNAKNTVYLQMNSLKPEDTAVYYCAADLFYHSYGYEYWGQGTQVTVSS experimental_result="low polyreactivity"
record_sequence=QVQLVESGGGLVQAGGSLRLSCAASGFIFKYYAMGWYRQAPGKERELVASISSYGSSTYYADSVKGRFTSSRDSAKNTVYLQLNSVKPEDTAVYYCAAPYNFWNFFDLIYVWDGYDYWGQGTQVTVSS experimental_result="low polyreactivity"
record_sequence=QVQLVESGGGLVQAGGSLRFSWAASGFIFRSNAMGWYRQAPGKERELVAAISKSGGSTYYADSVKGRFTISRDTAKKTVYLQMNSLKPEDTAVYYCFVDYYPYDYWGQGTQVTVSS experimental_result="low polyreactivity"

----------
- EXPERIMENT_NOTES: yeast display, Sf9 membrane polyspecificity reagent, FACS + sequencing; frameworks hold sequencing errors
ASSAY_READOUT: polyreactivity (PSR sort gate)

record_sequence=QVQLVESGGGLVQAGGSLRLSCAASGRIFAKYAMGWYRQAPGKERELVAAISLSGGRTYYADSVKGRFTISRDNAKNTVYLQMNSLKPEDTAVYYCAAEFYPIRYYGGYDYWGQGTQVTVSS experimental_result="low polyreactivity"
record_sequence=QVQLVESGGGLVQAGGSLRLSCAASGRTFYYYVMGWYRQAPGKERELVAAITKSTGSTYYADSVKGRFTISRDNAKNTVYLQMNSLKPEDTAVYYCAAAYWITTPYDYWGQGTQVTVSS experimental_result="low polyreactivity"
record_sequence=QVQLVESGGGLVQAGGSLRLSCAASGSIFFLYAMGWYRQAPGKERELVAAISVGGGSTYYADSVKGRFTFSRDNAKNTVYLHMNSLKPEDTAVYYCAALSKTRGGYWGQGTQVTVSS experimental_result="high polyreactivity"
record_sequence=QVQLVESGGGLVQAGGSLRLSCAASGRTFIGYAMGWYRQAPGKERELVATISVSGGSTYYADSVKGRFTISRDNAKNTVYLQMNSLTPVDTAVYYCADDPRYLQSWRGEFAGESWGQGTQVTVAS experimental_result="low polyreactivity"
record_sequence=QVQLVESGGGLVQAGGSLRLSCAASGSIFASNAMGWYRQAPGKEREFVAAIYWSGTRTYYADSVKGRFTISRDNAKNTVYLQLKSLKPEDTAVYYCAALTVLRNDYWGQGTQVSVSS experimental_result="low polyreactivity"
record_sequence=QVQLVESGGGLVQAGGSLRLSCAASGSIFQSNAMGWYRQAPGKERELFAAISWNTGSTYADSVKGRFTISRDNAKNTVYLQMNSLKPEDTAVYYCAADRSHAYYRKNRVDYWGQGTQVTVSS experimental_result="low polyreactivity"
record_sequence=QVQLVESGGGLVQAGGSLRLSCAASGRTFYFYVMGWYRQAPGKERELVARISYSDGSTYYADSVKGRFTISRDNAKNTVYLQMNSLKPEDTAVYYCNAYDPYYGRRYDYWGQGTQVTVSS experimental_result="low polyreactivity"
record_sequence=QVQLVESGGGLVQAGGSLRLSCAASGRTFRWYAMGWYRQAPGKESELVASISRGGSTSYADSVKGRFTISRDNAKNTVYLQMNSLKPEDTAVYYCAAGGFARTISYYWGQGTQVTVSS experimental_result="high polyreactivity"
record_sequence=QVQLVESGGGLVQAGGSLRLSCAASGNTFQYYALGWYRQAPGKERELVAAITTGGSKNFADSVKGRFTISRDNAKNTVYLQMNSLKPEDTAVYYCAARGGVSKRISDYWGQGTQVTVSS experimental_result="low polyreactivity"
record_sequence=QVQLVDSGGGLVQAGGSLRLSCAASGFIFGKNAMGWYRQAPGKERELVAVISWRGSSTNYADSVKGRFTISRDNAKNTVYLQMNSLKPEDTAVYYCAARYPARGTLYYWGQGTQVTVSS experimental_result="low polyreactivity"
record_sequence=QVQLVVSGGGLVQAGGSLRLSCAASGITFFPYAMGWYRQAPGKERLLVASISDRGGTNYADSVKGRFTISRDNAKNTVYLQMNSLKPEDTAVYYSASDASTYAYYGGDYWGQGTQVTVSS experimental_result="low polyreactivity"
